target: human amnionic whole cell cyclooxygenase-2 (WISH cells) (Homo sapiens, UniProt P35354); construct: endogenous in cells; assay: IL-1β induced PGE2 production in WISH cells; settings: read-out: Wish IC50 (parenthetical value)
Quantity: IC50 (nM)

Molecule	Unit spec	Reading
CC(=O)CCOc1c(-c2ccc(S(C)(=O)=O)cc2)cnn(-c2ccc(F)c(F)c2)c1=O [Example 467]	nM	135
Cc1ccc(-c2c(-c3ccc(S(C)(=O)=O)cc3)cnn(Cc3ccccc3)c2=O)cc1C [Example 325]	nM	40

1: CC(C)(C)COc1c(-c2ccc(S(N)(=O)=O)c(F)c2)cnn(CC(F)(F)F)c1=O [Example 381]
2: CS(=O)(=O)c1ccc(-c2cnn(C3CCc4ccccc43)c(=O)c2-c2ccc(F)cc2)cc1 (centres unmarked) [Example 129]
Q. Hi, I'm comparing 1 with 2 and wondering which one has the bigger number for IC50. Any idea? Returns: label corresponding to the selected item.
A. 1

A: CC(C)CCc1c(-c2ccc(S(C)(=O)=O)cc2)cnn(-c2cccc(Cl)c2)c1=O [Example 366]
B: CC(C)(C)COc1c(-c2ccc(S(C)(=O)=O)cc2)cnn(CC(F)(F)F)c1=O [Example 261]
Q. API: POST /compare with A and B ; response names the item with higher IC50. Kindly give the label for the entry you pick.
A. B

P: CC(C)CCOc1c(-c2ccc(S(C)(=O)=O)cc2)cnn(-c2ccc(F)cc2)c1=O [Example 375]
Q: CS(=O)(=O)c1ccc(-c2cnn(-c3cccc(Br)c3)c(=O)c2-c2ccc(F)cc2)cc1 [Example 166]
Q. Determine, for P and Q , which has the greater value of IC50. Give the chosen item's label as your response.
A. P
(P: 89 nM, Q: 20 nM)

----------
target: human amnionic whole cell cyclooxygenase-2 (WISH cells) (Homo sapiens); construct: endogenous in cells; test: IL-1β induced PGE2 production in WISH cells; conditions: read-out: Wish IC50 (parenthetical value)
pIC50: −log10 of the molar value.
Quantity: pIC50

1: CC(C)(O)CCOc1c(-c2ccc(S(C)(=O)=O)cc2)cnn(-c2ccc(F)c(F)c2)c1=O
2: CC(C)COc1c(-c2ccc(S(N)(=O)=O)cc2)cnn(CC(F)(F)F)c1=O
Q. Thinking about recorded pIC50 values, which is higher, 1 or 2 ? Refer to your chosen item by its label in the answer.
A. 1

I: NS(=O)(=O)c1ccc(-c2cnn(Cc3ccc(F)c(F)c3F)c(=O)c2-c2ccc(F)cc2)cc1
II: C=Cc1ccc(-c2c(-c3ccc(S(C)(=O)=O)cc3)cnn(Cc3ccccc3)c2=O)cc1
III: CS(=O)(=O)c1ccc(-c2cnn(-c3ccc(F)cc3)c(=O)c2Oc2ccc(F)cc2)cc1
Q. Sequence the entries by pIC50, beginning with the highest number. Put the labels in the requested order and write them down.
A. II, I, III
(II: 7.59, I: 7.34, III: 7.01)

----------
Biological target: Human whole blood Cox-2 (Homo sapiens, UniProt P35354)
Sequence (P35354 18-604): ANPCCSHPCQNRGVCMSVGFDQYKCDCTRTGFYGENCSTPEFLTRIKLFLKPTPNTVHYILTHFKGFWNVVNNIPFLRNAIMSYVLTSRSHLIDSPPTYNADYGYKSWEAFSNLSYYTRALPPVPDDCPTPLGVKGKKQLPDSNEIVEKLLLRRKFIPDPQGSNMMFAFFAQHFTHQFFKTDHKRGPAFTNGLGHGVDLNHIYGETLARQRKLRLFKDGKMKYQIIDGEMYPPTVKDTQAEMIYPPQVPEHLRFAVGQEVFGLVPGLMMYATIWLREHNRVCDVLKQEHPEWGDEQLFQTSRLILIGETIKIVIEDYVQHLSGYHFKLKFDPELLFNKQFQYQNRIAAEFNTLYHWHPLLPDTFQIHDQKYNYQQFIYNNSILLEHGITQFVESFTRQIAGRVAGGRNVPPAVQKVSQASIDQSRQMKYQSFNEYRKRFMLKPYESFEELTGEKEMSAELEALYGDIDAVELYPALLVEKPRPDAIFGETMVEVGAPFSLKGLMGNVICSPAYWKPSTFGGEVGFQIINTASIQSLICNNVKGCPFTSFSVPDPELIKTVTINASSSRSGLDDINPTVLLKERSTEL
Experiment: Human whole blood assay Cyclooxygenase-2
Quantity: pIC50
The value called pIC50 is obtained by taking minus log10 of the concentration in mol/L.

Q. State its pIC50 for this compound: CC(C)(O)CCOc1c(-c2ccc(S(C)(=O)=O)cc2)cnn(-c2ccc(F)cc2)c1=O [Example 451]
A. 6.33

----------
Quantity: melting point

Q. Please look at this compound and report its melting point: CC(C)CCOc1c(-c2ccc(S(C)(=O)=O)cc2)cnn(-c2cccc(Cl)c2)c1=O
A. 134 to 135 °C

Q. Consider the compound CC(C)COc1c(-c2ccc(S(C)(=O)=O)cc2)cnn(-c2ccc(F)c(F)c2)c1=O . State its measured melting point.
A. 116 to 117 °C

Q. Specify reported melting point for the compound shown: CS(=O)(=O)c1ccc(-c2cnn(CC(O)c3ccccc3)c(=O)c2-c2ccc(F)cc2)cc1 (stereo not shown)
A. 205 to 207 °C

Q. Please give the documented melting point of CC(C)COc1c(-c2ccc(S(C)(=O)=O)cc2)cnn(-c2cccc(Cl)c2)c1=O
A. 166 to 169 °C

----------
target: recombinant human Cox-2 (r-hu Cox-2) (Homo sapiens); assay: Recombinant human PGHS-2 enzyme assay (RHUCX2); details: read-out: RHUCX2 IC50 (parenthetical value)
Quantity: IC50 (nM)

Some molecules with recorded IC50:
CC1(n2ncc(-c3ccc(S(C)(=O)=O)cc3)c(-c3ccc(F)cc3)c2=O)CCCC1 53
CC(C)CCOc1c(-c2ccc(S(C)(=O)=O)cc2)cnn(-c2ccc(F)c(F)c2)c1=O 75
Cc1ccc(-c2c(-c3ccc(S(C)(=O)=O)cc3)cnn(Cc3ccccc3)c2=O)cc1C 199
CC(C)CCOc1c(-c2ccc(S(N)(=O)=O)cc2)cnn(-c2ccc(F)c(F)c2)c1=O 69
NS(=O)(=O)c1ccc(-c2cnn(CC=C(F)F)c(=O)c2-c2ccc(F)cc2)cc1 76

a: CC(C)CCc1c(-c2ccc(S(C)(=O)=O)cc2)cnn(-c2ccc(F)c(Cl)c2)c1=O
b: Cc1ccc(-c2c(-c3ccc(S(C)(=O)=O)cc3)cnn(-c3ccc(F)c(F)c3)c2=O)cc1F
Q. Higher IC50 between a and b ? Give the chosen item's label as your response.
A. b
(b: 166 nM, a: 40 nM)

----------
Reported inhibition in vivo at 3 mg/kg values are given for each entry in this list.
tested on: air pouch prostaglandin biosynthesis (Cox-2); experiment: Carrageenan induced air pouch prostaglandin biosynthesis model (CAP); format: in vivo, rat; conditions: 4 h; 3 mpk, rat; read-out: CAP % Inhib. @ 3 mpk
Report the figure in % without appending any unit label.

Compound	inhibition in vivo at 3 mg/kg, %
CS(=O)(=O)c1ccc(-c2cnn(-c3ccc(Cl)c(F)c3)c(=O)c2-c2ccc(F)cc2)cc1 [Example 190]	71
C=C(C)CCOc1c(-c2ccc(S(C)(=O)=O)cc2)cnn(-c2cccc(Cl)c2)c1=O [Example 427]	78
CC(C)CCc1c(-c2ccc(S(N)(=O)=O)cc2)cnn(-c2ccc(F)c(Cl)c2)c1=O [Example 405]	53
NS(=O)(=O)c1ccc(-c2cnn(CC(F)(F)F)c(=O)c2-c2ccc(Cl)c(F)c2)cc1 [Example 80]	91
CS(=O)(=O)c1ccc(-c2cnn(-c3cccc(Br)c3)c(=O)c2-c2ccc(F)cc2)cc1 [Example 166]	59

Q. Using the record for CC(C)CSc1c(-c2ccc(S(C)(=O)=O)cc2)cnn(-c2cccc(Cl)c2)c1=O [Example 361] , state its measured inhibition in vivo at 3 mg/kg.
A. 65

Q. Name the recorded inhibition in vivo at 3 mg/kg of the item CC(C)CCc1c(-c2ccc(S(C)(=O)=O)cc2)cnn(-c2ccc(F)c(Cl)c2)c1=O [Example 257] in your answer.
A. 60

Q. Report inhibition in vivo at 3 mg/kg for CC(C)CCOc1c(-c2ccc(S(C)(=O)=O)cc2)cnn(-c2cccc(Cl)c2)c1=O [Example 339]
A. 90.5

----------
molecular target: recombinant human Cox-2 (r-hu Cox-2) (Homo sapiens, UniProt P35354); assay: Recombinant human PGHS-2 enzyme assay (RHUCX2); conditions: read-out: RHUCX2 IC50 (parenthetical value)
pIC50: −log10 of the molar value.
Quantity: pIC50

Compound	pIC50
Cc1cc(-c2c(-c3ccc(S(C)(=O)=O)cc3)cnn(-c3ccc(F)c(F)c3)c2=O)ccc1F [Example 235]	6.68
Cc1ccc(-c2c(-c3ccc(S(C)(=O)=O)cc3)cnn(-c3ccc(F)c(F)c3)c2=O)cc1 [Example 234]	6.48
NS(=O)(=O)c1ccc(-c2cnn(-c3ccc(F)cc3)c(=O)c2-c2ccc(F)cc2)cc1 [Example 89]	6.46
CC(C)COc1c(-c2ccc(S(N)(=O)=O)c(F)c2)cnn(-c2cccc(Cl)c2)c1=O [Example 412]	8.70
Cc1ccc(-c2c(-c3ccc(S(C)(=O)=O)cc3)cnn(-c3cccc(Cl)c3)c2=O)cc1 [Example 370]	7.32
CS(=O)(=O)c1ccc(-c2cnn(-c3cccc(Cl)c3)c(=O)c2Sc2ccccn2)cc1 [Example 358]	5.61

P: CS(=O)(=O)c1ccc(-c2cnn(CC(F)(F)F)c(=O)c2-c2ccc(C(F)(F)F)cc2)cc1 [Example 213]
Q: COc1ccc(Oc2c(-c3ccc(S(C)(=O)=O)cc3)cnn(-c3cccc(Cl)c3)c2=O)cc1 [Example 345]
Q. Could you tell me which of P and Q has the lower pIC50 reading? Mark your selection by writing its label.
A. P
